src = patent US20240391895A1

- Assay target: NLRP3 inflammasome (Homo sapiens)
- Construct: Monocytes were then isolated from the PBMCs using a human pan-monocyte isolation kit; endogenous in cells; host or cells: primary human monocytes isolated from PBMCs of human blood
- Sequence (Q96P20 whole entry): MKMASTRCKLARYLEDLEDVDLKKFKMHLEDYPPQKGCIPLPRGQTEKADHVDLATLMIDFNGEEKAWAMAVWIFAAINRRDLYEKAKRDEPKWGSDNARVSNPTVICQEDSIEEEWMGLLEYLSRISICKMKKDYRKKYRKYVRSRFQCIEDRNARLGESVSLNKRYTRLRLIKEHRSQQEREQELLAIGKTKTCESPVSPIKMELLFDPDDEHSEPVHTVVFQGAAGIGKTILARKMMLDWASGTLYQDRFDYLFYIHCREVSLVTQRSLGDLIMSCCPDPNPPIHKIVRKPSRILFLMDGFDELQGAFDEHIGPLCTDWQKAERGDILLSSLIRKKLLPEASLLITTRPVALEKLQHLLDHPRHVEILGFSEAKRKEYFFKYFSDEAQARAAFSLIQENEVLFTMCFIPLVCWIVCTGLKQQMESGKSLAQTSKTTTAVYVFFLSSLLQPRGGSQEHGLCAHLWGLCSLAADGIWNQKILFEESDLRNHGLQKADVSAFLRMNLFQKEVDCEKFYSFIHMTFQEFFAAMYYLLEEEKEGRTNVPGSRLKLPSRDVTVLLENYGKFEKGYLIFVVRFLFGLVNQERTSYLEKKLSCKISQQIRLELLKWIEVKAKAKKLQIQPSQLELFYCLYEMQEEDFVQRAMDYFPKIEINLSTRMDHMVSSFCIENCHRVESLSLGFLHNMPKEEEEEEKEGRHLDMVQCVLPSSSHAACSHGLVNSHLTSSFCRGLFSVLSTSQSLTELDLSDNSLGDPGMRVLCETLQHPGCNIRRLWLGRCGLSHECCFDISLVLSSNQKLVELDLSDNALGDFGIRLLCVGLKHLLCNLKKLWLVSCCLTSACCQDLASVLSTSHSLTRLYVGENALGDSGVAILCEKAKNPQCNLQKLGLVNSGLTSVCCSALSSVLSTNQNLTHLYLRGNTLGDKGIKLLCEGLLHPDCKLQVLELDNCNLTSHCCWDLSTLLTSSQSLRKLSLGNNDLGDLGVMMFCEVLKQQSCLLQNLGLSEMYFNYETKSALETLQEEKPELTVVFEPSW
- Assay method text: Inhibitory activity against NLRP3 inflammasome in human monocytes (IL-1b ELISA)
- Format: cell-based
- Condition description: human monocytes from PBMCs; compound 0.5 h, LPS 100 ng/mL 3.5 h, ATP 5 mM 45 min; IL-1b in supernatant by ELISA; (n = 2) cells are means of n tests; read-out: IL-1β inhibition (EC50)/nM
Parameter log10 of EC50: see the listing below.
Record value = log10 of EC50 given in nM.

Sample answers from the record:
[[record]]
molecule = "Cc1cc(C(F)(F)F)cc(O)c1-c1nnc(N[C@H]2C[C@@](C)(O)C2)c2ccccc12"
assay_target = "NLRP3 inflammasome (Homo sapiens)"
endpoint_label = "log10 of EC50"
assay_result = 1.00

[[record]]
molecule = "CN1CCC[C@@H](Nc2ccc(-c3c(O)ccc4ccccc34)nn2)C1"
assay_target = "NLRP3 inflammasome (Homo sapiens)"
endpoint_label = "log10 of EC50"
assay_result = 1.68

[[record]]
molecule = "Cc1cc(N[C@@H]2CCCN(C)C2)nnc1-c1c(O)ccc2c1CCC2 [Compound 7]"
assay_target = "NLRP3 inflammasome (Homo sapiens)"
endpoint_label = "log10 of EC50"
assay_result = 1.35


Query: // lookup log10 of EC50 for C[C@]1(O)C[C@@H](Nc2nnc(-c3ccc(C(F)(F)F)cc3O)c3ncccc23)C1
Reply: 1.55

Query: So what's the measured log10 of EC50 for this one? Cc1cc(C(F)(F)F)cc(O)c1-c1nnc(N[C@@H]2CCCN(C)C2)c2c1COC2
Reply: 1.51

Query: Consider the molecule shown here: Cc1cc(N[C@@H]2CCCN(C)C2)nnc1-c1ccc2c(c1O)CCC2 What is its recorded log10 of EC50?
Reply: 0.28
